Recorded values, source ChEMBL document CHEMBL3399966.

Target: Phosphatidylinositol 4,5-bisphosphate 3-kinase catalytic subunit delta isoform (Homo sapiens)
Sequence (O00329 whole entry, canonical isoform): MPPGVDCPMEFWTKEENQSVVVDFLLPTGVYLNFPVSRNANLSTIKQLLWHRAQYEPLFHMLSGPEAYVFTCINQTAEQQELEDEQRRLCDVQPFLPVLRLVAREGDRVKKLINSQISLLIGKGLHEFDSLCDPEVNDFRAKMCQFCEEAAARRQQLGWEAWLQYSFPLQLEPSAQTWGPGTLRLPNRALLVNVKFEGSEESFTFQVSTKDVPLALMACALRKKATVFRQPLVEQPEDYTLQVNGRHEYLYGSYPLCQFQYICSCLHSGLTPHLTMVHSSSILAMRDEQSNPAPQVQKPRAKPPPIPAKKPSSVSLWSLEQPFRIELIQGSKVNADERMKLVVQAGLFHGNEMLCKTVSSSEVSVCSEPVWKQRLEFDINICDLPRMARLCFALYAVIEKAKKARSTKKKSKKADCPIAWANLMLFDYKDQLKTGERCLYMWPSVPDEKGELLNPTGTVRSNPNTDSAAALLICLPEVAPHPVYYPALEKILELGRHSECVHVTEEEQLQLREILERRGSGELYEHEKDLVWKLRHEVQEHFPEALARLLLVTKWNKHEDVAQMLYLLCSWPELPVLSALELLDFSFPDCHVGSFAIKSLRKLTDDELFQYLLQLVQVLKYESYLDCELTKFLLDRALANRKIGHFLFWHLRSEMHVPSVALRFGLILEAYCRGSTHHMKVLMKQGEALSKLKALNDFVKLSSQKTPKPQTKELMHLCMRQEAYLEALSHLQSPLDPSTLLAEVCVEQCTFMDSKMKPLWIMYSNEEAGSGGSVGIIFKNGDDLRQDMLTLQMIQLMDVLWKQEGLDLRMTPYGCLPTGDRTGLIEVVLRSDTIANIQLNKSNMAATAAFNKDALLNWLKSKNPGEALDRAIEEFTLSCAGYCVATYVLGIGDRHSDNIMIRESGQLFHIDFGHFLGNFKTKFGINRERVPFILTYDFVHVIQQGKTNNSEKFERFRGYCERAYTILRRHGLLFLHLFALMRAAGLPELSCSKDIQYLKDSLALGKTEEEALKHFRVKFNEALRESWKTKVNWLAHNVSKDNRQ
Assay: Inhibition of PI3Kdelta (unknown origin)
Measured metric: Ki (nM)
Give the value, in units of nM, as a plain number.

[
  {
    "Molecule": "O=c1[nH]c(=O)n(C[C@H]2C3CCC(CC3)[C@@H]2Nc2nc(-c3c[nH]c4ncc(F)cc34)ncc2F)o1 (mixture of isomers)",
    "Ki (nM)": 180
  },
  {
    "Molecule": "Cc1nnc([C@H]2C3CCC(CC3)[C@@H]2Nc2nc(-c3c[nH]c4ncc(F)cc34)ncc2F)o1 (mixture of isomers)",
    "Ki (nM)": 1200
  }
]

Challenge: In one line, give reported Ki of the entry OCC(O)[C@H]1C2CCC(CC2)[C@@H]1Nc1nc(-c2c[nH]c3ncc(F)cc23)ncc1F (mixture of isomers) .
Response given: 1600

====

Let's go through some pKi measurements on UniProtKB P12931 together.
Sequence (P12931 2-536 limits assumed): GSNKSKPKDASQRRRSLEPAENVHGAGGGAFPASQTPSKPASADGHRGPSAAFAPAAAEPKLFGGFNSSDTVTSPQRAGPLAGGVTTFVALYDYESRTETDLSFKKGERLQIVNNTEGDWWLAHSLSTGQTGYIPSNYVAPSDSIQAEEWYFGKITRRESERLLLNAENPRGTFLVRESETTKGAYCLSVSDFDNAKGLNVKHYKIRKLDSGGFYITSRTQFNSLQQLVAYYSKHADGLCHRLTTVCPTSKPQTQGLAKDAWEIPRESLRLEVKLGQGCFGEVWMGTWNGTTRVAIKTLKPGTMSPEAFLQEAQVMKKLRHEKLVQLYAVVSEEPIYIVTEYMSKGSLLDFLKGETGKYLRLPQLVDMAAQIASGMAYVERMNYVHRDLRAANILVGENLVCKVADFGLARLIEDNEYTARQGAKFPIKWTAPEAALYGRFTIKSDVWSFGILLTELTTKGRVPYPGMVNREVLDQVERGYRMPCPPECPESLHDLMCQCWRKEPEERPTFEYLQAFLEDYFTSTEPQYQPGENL
pKi (log units): -log10 of the concentration in mol/L.

[
  {
    "Molecule": "CNC(=O)[C@H]1C2CCC(CC2)[C@@H]1Nc1nc(-c2c[nH]c3ncc(F)cc23)ncc1F (mixture of isomers)",
    "pKi": 5.60
  },
  {
    "Molecule": "Cc1noc([C@H]2C3CCC(CC3)[C@@H]2Nc2nc(-c3c[nH]c4ncc(F)cc34)ncc2F)n1 (mixture of isomers)",
    "pKi": 5.62
  }
]

API: the following record is the query input.
Challenge: GET pKi where system = UniProtKB P12931 and item = OCC(O)[C@H]1C2CCC(CC2)[C@@H]1Nc1nc(-c2c[nH]c3ncc(F)cc23)ncc1F (mixture of isomers)
Response given: 5.46

====

Target: Phosphatidylinositol 4,5-bisphosphate 3-kinase catalytic subunit alpha isoform (Homo sapiens)
Sequence (P42336 whole entry, canonical isoform): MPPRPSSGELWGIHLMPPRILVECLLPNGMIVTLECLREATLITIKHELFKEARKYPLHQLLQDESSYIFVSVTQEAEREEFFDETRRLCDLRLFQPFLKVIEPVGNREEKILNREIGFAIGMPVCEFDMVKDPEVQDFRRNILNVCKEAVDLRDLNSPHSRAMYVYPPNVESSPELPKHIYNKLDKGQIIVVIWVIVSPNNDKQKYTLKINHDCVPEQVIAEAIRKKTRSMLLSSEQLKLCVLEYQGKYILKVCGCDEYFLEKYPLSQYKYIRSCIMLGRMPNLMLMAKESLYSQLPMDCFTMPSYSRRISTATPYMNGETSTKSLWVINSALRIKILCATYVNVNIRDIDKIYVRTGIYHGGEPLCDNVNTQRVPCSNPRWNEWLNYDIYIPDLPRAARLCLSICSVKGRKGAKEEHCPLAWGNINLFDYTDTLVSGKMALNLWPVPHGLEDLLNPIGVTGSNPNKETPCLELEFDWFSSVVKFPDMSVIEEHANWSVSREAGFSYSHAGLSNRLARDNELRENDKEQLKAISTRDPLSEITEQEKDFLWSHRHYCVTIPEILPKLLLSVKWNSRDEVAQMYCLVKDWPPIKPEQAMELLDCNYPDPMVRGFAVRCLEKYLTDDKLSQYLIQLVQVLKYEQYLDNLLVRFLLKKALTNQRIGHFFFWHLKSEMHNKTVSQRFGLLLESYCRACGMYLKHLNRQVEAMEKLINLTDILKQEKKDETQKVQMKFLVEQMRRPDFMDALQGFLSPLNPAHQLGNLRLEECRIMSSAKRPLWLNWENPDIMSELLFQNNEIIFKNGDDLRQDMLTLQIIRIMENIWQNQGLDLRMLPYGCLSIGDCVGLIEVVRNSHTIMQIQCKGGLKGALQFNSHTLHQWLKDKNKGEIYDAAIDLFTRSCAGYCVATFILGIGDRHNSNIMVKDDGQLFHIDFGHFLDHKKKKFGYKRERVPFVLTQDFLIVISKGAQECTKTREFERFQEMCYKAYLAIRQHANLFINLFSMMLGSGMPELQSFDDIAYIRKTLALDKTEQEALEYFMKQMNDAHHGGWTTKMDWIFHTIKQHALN
Assay: Inhibition of PI3Kalpha (unknown origin)
pKi: −log10 of the molar value.
Measured metric: pKi

[
  {
    "Compound": "Cc1noc([C@H]2C3CCC(CC3)[C@@H]2Nc2nc(-c3c[nH]c4ncc(F)cc34)ncc2F)n1 (mixture of isomers)",
    "pKi": "< 5.40"
  },
  {
    "Compound": "CC(O)[C@H]1C2CCC(CC2)[C@@H]1Nc1nc(-c2c[nH]c3ncc(F)cc23)ncc1F (mixture of isomers)",
    "pKi": "< 5.40"
  },
  {
    "Compound": "Oc1cc([C@H]2C3CCC(CC3)[C@@H]2Nc2nc(-c3c[nH]c4ncc(F)cc34)ncc2F)[nH]n1 (mixture of isomers)",
    "pKi": "< 5.40"
  }
]

Challenge: Provide pKi value for the following compound: O=c1nc([C@H]2C3CCC(CC3)[C@@H]2Nc2nc(-c3c[nH]c4ncc(F)cc34)ncc2F)[nH]o1 (mixture of isomers)
Response given: < 5.40

Challenge: Give the measured pKi for Cc1nnc([C@H]2C3CCC(CC3)[C@@H]2Nc2nc(-c3c[nH]c4ncc(F)cc34)ncc2F)o1 (mixture of isomers)
Response given: < 5.40

Challenge: Provide one value: measured pKi of Oc1cc([C@H]2C3CCC(CC3)[C@@H]2Nc2nc(-c3c[nH]c4ncc(F)cc34)ncc2F)on1 (mixture of isomers)
Response given: 5.89

Challenge: Write down pKi measured for item Fc1cnc2[nH]cc(-c3ncc(F)c(N[C@H]4C5CCC(CC5)[C@@H]4c4nnn[nH]4)n3)c2c1 (mixture of isomers)
Response given: 5.74
